Examples of compounds with documented MIC follow.
System: multiple species and strains
Assay: microbe, parasite or virus in culture
Conditions: Pseudomonas aeruginosa, ATCC27853, read-out: MIC S7, P. aeruginosa ATCC 27853
Measure Name: MIC

{"Compound": "CNc1cc(F)c(Cl)c2c1[nH]c1ncc(-c3ccc4ccc(C(=O)O)c(=O)n4c3)c(N3CC[C@@]4(C[C@H]4N)C3)c12 [Example 5.01C]", "Reading": "1.03 µg/mL"}
{"Compound": "CNc1cc(F)c(F)c2c1[nH]c1ncc(-c3ccc4ccc(C(=O)O)c(=O)n4c3)c(N3CC[C@@H]4CCN(C)[C@@H]4C3)c12 [Example 3.04B]", "Reading": "0.873 µg/mL"}
{"Compound": "CNc1cc(F)c(F)c2c1[nH]c1ncc(-c3ccc4ccc(C(=O)O)c(=O)n4c3)c(N3CCC(C4(N)CC4)C3)c12 (stereo not drawn)", "Reading": "1.21 µg/mL"}
{"Compound": "CNc1cc(F)c(Cl)c2c1[nH]c1ncc(-c3ccc4ccc(C(=O)O)c(=O)n4c3)c(N3C[C@H]4CC[C@@H](N(C)C)[C@H]4C3)c12", "Reading": "2.2 µg/mL"}
{"Compound": "CNc1cc(F)c(F)c2c1[nH]c1ncc(-c3cc(C)c4ccc(C(=O)O)c(=O)n4c3)c(N(C)C)c12", "Reading": "2.98 µg/mL"}
{"Compound": "CNc1cc(F)c(Cl)c2c1[nH]c1ncc(-c3ccc4ccc(C(=O)O)c(=O)n4c3)c(N3CC[C@@]4(C[C@@H]4N)C3)c12 (single isomer, unassigned) [Example 5.01A]", "Reading": "2.07 µg/mL"}
{"Compound": "CNc1cc(F)c(F)c2c1[nH]c1ncc(-c3ccc4ccc(C(=O)O)c(=O)n4c3)c(N3C[C@H]4CCN(C)[C@H]4C3)c12 [Example 3.03A]", "Reading": "0.85 µg/mL"}
{"Compound": "CNc1cc(F)c(F)c2c1[nH]c1ncc(-c3ccc4ccc(C(=O)O)c(=O)n4c3)c(N3CC[C@]4(C[C@@H]4N)C3)c12 [Example 4.01D]", "Reading": "1.19 µg/mL"}
{"Compound": "CNc1cc(F)c(F)c2c1[nH]c1ncc(-c3ccc4ccc(C(=O)O)c(=O)n4c3)c(N3CC[C@H]4CCN(C)[C@H]4C3)c12 [Example 3.04A]", "Reading": "0.436 µg/mL"}
{"Compound": "CNc1cc(F)cc2c1[nH]c1nc(Oc3cnc(C)nc3)nc(N3C[C@H]4C[C@@H]3C[C@H]4N)c12 [GP-6, reference compound]", "Reading": "0.678 µg/mL"}
{"Compound": "CNc1cc(F)c(F)c2c1[nH]c1ncc(-c3ccc4ccc(C(=O)O)c(=O)n4c3)c(N(C)C)c12", "Reading": "0.901 µg/mL"}
{"Compound": "CNc1cc(F)c(C#N)c2c1[nH]c1ncc(-c3ccc4ccc(C(=O)O)c(=O)n4c3)c(N3CC[C@H]4CN(C)C[C@H]43)c12", "Reading": "0.86 µg/mL"}

----------
Tested on: multiple species and strains
Assay: microbe, parasite or virus in culture
Settings: Acinetobacter baumannii, ATCC51432, read-out: MIC S2, A. baumannii ATCC 51432

{"Compound": "CNc1cc(F)c(F)c2c1[nH]c1ncc(-c3ccc4ccc(C(=O)O)c(=O)n4c3)c(N3CC[C@@]4(C[C@@H]4N)C3)c12 (single isomer, unassigned) [Example 4.01A]", "MIC": "0.445 µg/mL"}
{"Compound": "CNc1cc(F)c(C#N)c2c1[nH]c1ncc(-c3ccc4ccc(C(=O)O)c(=O)n4c3)c(N3CC[C@H]4CCN(C)C4C3)c12 (stereo in doubt) [Example 1.17]", "MIC": "0.882 µg/mL"}
{"Compound": "CNc1cc(F)c(F)c2c1[nH]c1ncc(-c3ccc4ccc(C(=O)O)c(=O)n4c3)c(N3CCC4CN(C)C[C@@H]43)c12 (stereo in doubt) [Example 1.03]", "MIC": "0.26 µg/mL"}
{"Compound": "CNc1cc(F)c(F)c2c1[nH]c1ncc(-c3ccc4ccc(C(=O)O)c(=O)n4c3)c(N3CC[C@H]4CCN(C)[C@H]4C3)c12 [Example 3.04A]", "MIC": "0.218 µg/mL"}
{"Compound": "CNc1cc(F)c(F)c2c1[nH]c1ncc(-c3cc(C)c4ccc(C(=O)O)c(=O)n4c3)c(N(C)C)c12 [Example 1.20]", "MIC": "1.49 µg/mL"}
{"Compound": "CNc1cc(F)c(Cl)c2c1[nH]c1ncc(-c3ccc4ccc(C(=O)O)c(=O)n4c3)c(N3CC[C@@]4(C[C@H]4N)C3)c12 [Example 5.01C]", "MIC": "0.258 µg/mL"}
{"Compound": "CNc1cc(F)c(C#N)c2c1[nH]c1ncc(-c3ccc4ccc(C(=O)O)c(=O)n4c3)c(N(C)C)c12 [Example 1.18]", "MIC": "0.367 µg/mL"}
{"Compound": "CNc1cc(F)c(F)c2c1[nH]c1ncc(-c3ccc4ccc(C(=O)O)c(=O)n4c3)c(N(C)C)c12 [Example 1.01]", "MIC": "0.45 µg/mL"}
{"Compound": "CNc1cc(F)c(Cl)c2c1[nH]c1ncc(-c3ccc4ccc(C(=O)O)c(=O)n4c3)c(N3CC[C@H]4CN(C)C[C@H]43)c12 [Example 1.07]", "MIC": "0.066 µg/mL"}
{"Compound": "CNc1cc(F)c(Cl)c2c1[nH]c1ncc(-c3ccc4ccc(C(=O)O)c(=O)n4c3)c(N3CC[C@]4(C[C@H]4N)C3)c12 [Example 5.01B]", "MIC": "1.03 µg/mL"}
{"Compound": "CNc1cc(F)c(F)c2c1[nH]c1ncc(-c3ccc4ccc(C(=O)O)c(=O)n4c3)c(N3C[C@H]4CCN(C)[C@H]4C3)c12 [Example 3.03A]", "MIC": "0.212 µg/mL"}
{"Compound": "CNc1cc(F)c(F)c2c1[nH]c1ncc(-c3ccc4ccc(C(=O)O)c(=O)n4c3)c(N3CC[C@]4(C[C@H]4N)C3)c12 [Example 4.01C]", "MIC": "0.592 µg/mL"}
